target: 5-HT2B (Homo sapiens (Human)); assay: 5-HT2B Gq-mediated calcium flux functional assay; assay type: cell-based; settings: IA = Inactive; N=1-3; read-out: 5-HT2B-Ca2+ FLUX pEC50 (converted)
PROPERTY_LABEL: EC50

>  <MOLECULE>
CC(CN)c1c[nH]c2ccc(F)cc12 (centres unmarked) [compound 187, 2-(5-fluoro-1H-indol-3-yl)propan-1-amine]

>  <ENDPOINT_VALUE>
1.26 nM

$$$$
>  <MOLECULE>
CCCN(CC#N)CCc1c[nH]c2c(F)cccc12 [compound 181]

>  <ENDPOINT_VALUE>
295 nM

$$$$
>  <MOLECULE>
CN1CCC(c2c[nH]c3c(F)cccc23)C1 (centres unmarked) [compound 23]

>  <ENDPOINT_VALUE>
4.37 nM

$$$$
>  <MOLECULE>
CN1CCC(c2c[nH]c3cc(F)c(F)cc23)C1 (centres unmarked) [compound 19]

>  <ENDPOINT_VALUE>
1.51 nM

$$$$
>  <MOLECULE>
CN(CCc1c[nH]c2ccc(F)cc12)C1CSC1 [compound 20]

>  <ENDPOINT_VALUE>
2.4 nM

$$$$

====

Parameter 5-HT2A pKi ± SEM: see the listing below.
molecular target: Serotonin 5-HT2A (human) (Homo sapiens (Human), UniProt P28223); experiment: 5-HT2A receptor binding, [3H]-ketanserin competition in membrane fractions; settings: 1 nM [3H]-ketanserin, Cheng-Prusoff, N=1-3

>  <MOLECULE>
CCN(C)CCc1c[nH]c2c(F)cccc12

>  <5-HT2A pKi ± SEM>
6.02

$$$$
>  <MOLECULE>
C=CCN(CC)CCc1c[nH]c2ccc(F)cc12

>  <5-HT2A pKi ± SEM>
6.13

$$$$
>  <MOLECULE>
CN1CCC(c2c[nH]c3cc(F)c(F)cc23)C1 (stereo not drawn)

>  <5-HT2A pKi ± SEM>
6.92

$$$$
>  <MOLECULE>
CCN(C)CCc1c[nH]c2c(Br)cc(F)cc12

>  <5-HT2A pKi ± SEM>
6.42

$$$$
>  <MOLECULE>
CCN(CCc1c[nH]c2ccc(F)cc12)C(C)C

>  <5-HT2A pKi ± SEM>
5.95

$$$$
>  <MOLECULE>
CCCN(CCc1c[nH]c2c(F)cccc12)C1CCC1

>  <5-HT2A pKi ± SEM>
5.91

$$$$

====

biological target: 5-HT2B (Homo sapiens (Human), UniProt P41595); test: 5-HT2B Gq-mediated calcium flux functional assay; format: cell-based; conditions: IA = Inactive; N=1-3
Sequence (P41595 whole entry): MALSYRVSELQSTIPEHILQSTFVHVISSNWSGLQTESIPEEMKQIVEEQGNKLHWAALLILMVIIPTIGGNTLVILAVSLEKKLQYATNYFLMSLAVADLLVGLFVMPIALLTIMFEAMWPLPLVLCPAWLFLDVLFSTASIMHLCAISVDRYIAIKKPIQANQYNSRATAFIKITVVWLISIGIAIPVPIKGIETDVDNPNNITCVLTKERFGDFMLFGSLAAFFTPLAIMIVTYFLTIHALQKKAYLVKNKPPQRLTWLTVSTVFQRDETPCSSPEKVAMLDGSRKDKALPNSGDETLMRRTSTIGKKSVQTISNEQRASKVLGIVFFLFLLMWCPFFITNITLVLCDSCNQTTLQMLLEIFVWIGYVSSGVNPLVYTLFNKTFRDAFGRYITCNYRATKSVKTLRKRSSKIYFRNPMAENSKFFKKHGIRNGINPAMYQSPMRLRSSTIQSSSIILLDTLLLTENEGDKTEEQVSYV
Checkbox rule: 5-HT2B-Ca2+ FLUX Emax (% 5-HT) lower than 80 % 5-HT = Met; 5-HT2B-Ca2+ FLUX Emax (% 5-HT) not lower than 80 % 5-HT = Not met.

>  <COMPOUND>
CCN(C)CCc1c[nH]c2c(F)cc(OC)cc12

>  <TARGET_OF_ASSAY>
5-HT2B (Homo sapiens (Human), UniProt P41595)

>  <LABEL>
Met

$$$$
>  <COMPOUND>
CCC(C)N(CC)CCc1c[nH]c2ccc(F)cc12 (stereo not shown)

>  <TARGET_OF_ASSAY>
5-HT2B (Homo sapiens (Human), UniProt P41595)

>  <LABEL>
Not met

$$$$
>  <COMPOUND>
CN(CCc1c[nH]c2ccc(F)cc12)C1CSC1

>  <TARGET_OF_ASSAY>
5-HT2B (Homo sapiens (Human), UniProt P41595)

>  <LABEL>
Met

$$$$
>  <COMPOUND>
CN1CCC(c2c[nH]c3c(F)cccc23)C1 (stereo not shown)

>  <TARGET_OF_ASSAY>
5-HT2B (Homo sapiens (Human), UniProt P41595)

>  <LABEL>
Met

$$$$
>  <COMPOUND>
CCCN(CC)CCc1c[nH]c2c(F)c(F)c(F)cc12

>  <TARGET_OF_ASSAY>
5-HT2B (Homo sapiens (Human), UniProt P41595)

>  <LABEL>
Not met

$$$$
>  <COMPOUND>
CN1CCC(c2c[nH]c3cc(F)c(F)cc23)C1 (stereo not shown)

>  <TARGET_OF_ASSAY>
5-HT2B (Homo sapiens (Human), UniProt P41595)

>  <LABEL>
Met

$$$$
>  <COMPOUND>
CCCN(CC)CCc1c[nH]c2cc(F)c(F)cc12

>  <TARGET_OF_ASSAY>
5-HT2B (Homo sapiens (Human), UniProt P41595)

>  <LABEL>
Not met

$$$$
>  <COMPOUND>
CCN(C)CCc1c[nH]c2c(F)c(F)c(F)cc12

>  <TARGET_OF_ASSAY>
5-HT2B (Homo sapiens (Human), UniProt P41595)

>  <LABEL>
Met

$$$$
>  <COMPOUND>
CCCN(CC#N)CCc1c[nH]c2c(F)cccc12

>  <TARGET_OF_ASSAY>
5-HT2B (Homo sapiens (Human), UniProt P41595)

>  <LABEL>
Met

$$$$
>  <COMPOUND>
CCCN(C)CCc1c[nH]c2ccc(F)cc12

>  <TARGET_OF_ASSAY>
5-HT2B (Homo sapiens (Human), UniProt P41595)

>  <LABEL>
Met

$$$$
>  <COMPOUND>
C#CCN(CCC)CCc1c[nH]c2c(F)cccc12

>  <TARGET_OF_ASSAY>
5-HT2B (Homo sapiens (Human), UniProt P41595)

>  <LABEL>
Not met

$$$$
>  <COMPOUND>
CCCN(CCc1c[nH]c2ccc(F)cc12)C1CCC1

>  <TARGET_OF_ASSAY>
5-HT2B (Homo sapiens (Human), UniProt P41595)

>  <LABEL>
Not met

$$$$
>  <COMPOUND>
CCC(C)N(CCc1c[nH]c2ccc(F)cc12)C1CC1 (stereo not shown)

>  <TARGET_OF_ASSAY>
5-HT2B (Homo sapiens (Human), UniProt P41595)

>  <LABEL>
Not met

$$$$
>  <COMPOUND>
CCCN(CC)CCc1c[nH]c2ccc(F)cc12

>  <TARGET_OF_ASSAY>
5-HT2B (Homo sapiens (Human), UniProt P41595)

>  <LABEL>
Not met

$$$$
>  <COMPOUND>
C=CCN(C)CCc1c[nH]c2ccc(F)cc12

>  <TARGET_OF_ASSAY>
5-HT2B (Homo sapiens (Human), UniProt P41595)

>  <LABEL>
Met

$$$$
>  <COMPOUND>
CCN(C)CCc1c[nH]c2cc(F)c(Cl)cc12

>  <TARGET_OF_ASSAY>
5-HT2B (Homo sapiens (Human), UniProt P41595)

>  <LABEL>
Met

$$$$
>  <COMPOUND>
C=CCN(CC)CCc1c[nH]c2ccc(F)cc12

>  <TARGET_OF_ASSAY>
5-HT2B (Homo sapiens (Human), UniProt P41595)

>  <LABEL>
Not met

$$$$
>  <COMPOUND>
CN1CCC[C@@H]1Cc1c[nH]c2ccc(F)cc12

>  <TARGET_OF_ASSAY>
5-HT2B (Homo sapiens (Human), UniProt P41595)

>  <LABEL>
Not met

$$$$
>  <COMPOUND>
CCC(C)N(C)CCc1c[nH]c2ccc(F)cc12 (stereo not shown)

>  <TARGET_OF_ASSAY>
5-HT2B (Homo sapiens (Human), UniProt P41595)

>  <LABEL>
Met

$$$$
>  <COMPOUND>
CCN(CCc1c[nH]c2ccc(F)cc12)C(C)C

>  <TARGET_OF_ASSAY>
5-HT2B (Homo sapiens (Human), UniProt P41595)

>  <LABEL>
Not met

$$$$
>  <COMPOUND>
CCN(C)CCc1c[nH]c2ccc(F)cc12

>  <TARGET_OF_ASSAY>
5-HT2B (Homo sapiens (Human), UniProt P41595)

>  <LABEL>
Met

$$$$
>  <COMPOUND>
C=CCN(CCc1c[nH]c2ccc(F)cc12)C(C)C

>  <TARGET_OF_ASSAY>
5-HT2B (Homo sapiens (Human), UniProt P41595)

>  <LABEL>
Not met

$$$$

====

target: 5-HT2B (Homo sapiens (Human)); test: 5-HT2B Gq-mediated calcium flux functional assay; assay type: cell-based; settings: IA = Inactive; N=1-3

>  <COMPOUND>
CN(C)CCc1c[nH]c2ccc(F)cc12

>  <TARGET_OF_ASSAY>
5-HT2B (Homo sapiens (Human))

>  <5-HT2B-Ca2+ FLUX Emax (% 5-HT)>
61.1

$$$$
>  <COMPOUND>
CN1CCC[C@H]1Cc1c[nH]c2ccc(F)cc12

>  <TARGET_OF_ASSAY>
5-HT2B (Homo sapiens (Human))

>  <5-HT2B-Ca2+ FLUX Emax (% 5-HT)>
35.3

$$$$
>  <COMPOUND>
CCC(C)N(CCc1c[nH]c2ccc(F)cc12)C(C)C (centres unmarked)

>  <TARGET_OF_ASSAY>
5-HT2B (Homo sapiens (Human))

>  <5-HT2B-Ca2+ FLUX Emax (% 5-HT)>
108.0

$$$$
>  <COMPOUND>
C=CCN(CCc1c[nH]c2ccc(F)cc12)C(C)CC (centres unmarked)

>  <TARGET_OF_ASSAY>
5-HT2B (Homo sapiens (Human))

>  <5-HT2B-Ca2+ FLUX Emax (% 5-HT)>
97.4

$$$$
>  <COMPOUND>
CC(CN)c1c[nH]c2ccc(F)cc12 (centres unmarked)

>  <TARGET_OF_ASSAY>
5-HT2B (Homo sapiens (Human))

>  <5-HT2B-Ca2+ FLUX Emax (% 5-HT)>
89.0

$$$$
